Target: Prostaglandin G/H synthase 1 (Ovis aries, UniProt P05979)
Sequence (P05979 whole entry): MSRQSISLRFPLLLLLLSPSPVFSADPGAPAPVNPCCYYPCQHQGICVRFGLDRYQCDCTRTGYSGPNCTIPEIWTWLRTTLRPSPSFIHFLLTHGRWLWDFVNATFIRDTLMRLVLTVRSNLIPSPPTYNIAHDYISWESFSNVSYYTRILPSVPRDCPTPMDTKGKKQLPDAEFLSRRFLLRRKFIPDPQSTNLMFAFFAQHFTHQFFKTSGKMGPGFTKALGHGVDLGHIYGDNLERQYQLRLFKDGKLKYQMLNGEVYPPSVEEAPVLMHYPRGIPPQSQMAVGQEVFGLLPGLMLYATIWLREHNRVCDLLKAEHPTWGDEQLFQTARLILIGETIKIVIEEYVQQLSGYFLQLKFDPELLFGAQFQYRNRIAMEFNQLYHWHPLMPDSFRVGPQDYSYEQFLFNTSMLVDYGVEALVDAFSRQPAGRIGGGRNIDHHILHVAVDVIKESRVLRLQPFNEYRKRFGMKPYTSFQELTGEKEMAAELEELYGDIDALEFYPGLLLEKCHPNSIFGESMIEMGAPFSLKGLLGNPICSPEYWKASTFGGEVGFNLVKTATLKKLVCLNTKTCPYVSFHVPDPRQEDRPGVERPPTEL
property: IC50

The cases that follow already have their IC50 on record.
[
  {
    "mol.smiles": "CC(=O)Oc1cc(-c2cc(C(F)(F)F)nn2-c2ccc(S(N)(=O)=O)cc2)ccc1C",
    "IC50": "> 100 µM"
  },
  {
    "mol.smiles": "CC(=O)Oc1cc(C)ccc1-c1cc(C(F)(F)F)nn1-c1ccc(S(C)(=O)=O)cc1",
    "IC50": "> 100 µM"
  },
  {
    "mol.smiles": "CC(=O)Oc1cc(F)ccc1-c1cc(C(F)(F)F)nn1-c1ccc(S(N)(=O)=O)cc1",
    "IC50": "0.7 µM"
  }
]

For the next question, use this compound.
Output IC50 of `CC(=O)Oc1cccc(-c2cc(C(F)(F)F)nn2-c2ccc(S(C)(=O)=O)cc2)c1`
> 100 µM
